Target: Alpha 2C (Homo sapiens)
Experiment: FLIPR assay, intracellular Ca2+ mobilization, alpha 2C
Conditions: agonist, read-out: Alpha 2C Potency (EC50)
pEC50: −log10 of the molar value.
Reported Metric: pEC50

• Clc1ccc(NC2=NCCC2)c2ccccc12 = 6.17
• Cc1c(NC2=NCCC2)ccc2[nH]cnc12 = 7.24
• Brc1c(NC2=NCCC2)ccc2[nH]cnc12 = 8.82
• c1cc2cc(/N=C3\CCCN3)cnc2[nH]1 = 8.22
• c1cc2cc(NC3=NCCC3)ccc2s1 = 7.05
• Clc1c(NC2=NCCC2)ccc2[nH]cnc12 = 7.46
• c1cnc2c(NC3=NCCC3)cccc2c1 = 5.53
• Cc1c(NC2=NCCC2)ccc2nccnc12 = 7.80
• Cc1c(/N=C2\CCCN2)cnc2[nH]ccc12 = 7.66
• Cc1c(NC2=NCCC2)ccc2c1NCCO2 = 6.49
• Fc1cccc2c1C(NC1=NCCC1)CC2 (centres unmarked) = 6.25
• Brc1ccc(NC2=NCCC2)c2ccccc12 = 6.08
• Clc1cc(NC2=NCCC2)cc2nc[nH]c12 = 6.36
• c1nc2cc(NC3=NCCC3)ccc2[nH]1 = 6.85
• Clc1c(/N=C2\CCCN2)cnc2cccnc12 = 5.59
• c1cnc2cc(NC3=NCCC3)ccc2c1 = 6.98
• c1cc2cc(NC3=NCCC3)ccc2[nH]1 = 8.05
• Clc1c(NC2=NCCC2)ccc2cccnc12 = 6.66
• Cc1ccc2ccccc2c1NC1=NCCC1 = 6.43

* * *

Biological target: UniProt P18825
Sequence (P18825 1-462): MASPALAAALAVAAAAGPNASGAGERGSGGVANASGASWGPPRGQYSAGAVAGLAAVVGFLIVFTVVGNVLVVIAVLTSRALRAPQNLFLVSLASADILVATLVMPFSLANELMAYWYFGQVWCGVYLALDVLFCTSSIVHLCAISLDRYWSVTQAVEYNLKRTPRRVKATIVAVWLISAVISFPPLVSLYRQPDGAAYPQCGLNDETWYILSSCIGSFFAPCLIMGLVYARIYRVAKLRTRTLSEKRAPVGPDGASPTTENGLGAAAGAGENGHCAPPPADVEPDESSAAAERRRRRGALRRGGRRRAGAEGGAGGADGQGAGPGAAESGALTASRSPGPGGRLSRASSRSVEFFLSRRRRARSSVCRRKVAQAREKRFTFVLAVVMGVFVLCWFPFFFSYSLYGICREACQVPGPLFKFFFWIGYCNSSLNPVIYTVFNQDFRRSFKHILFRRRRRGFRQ
Assay: FLIPR assay, intracellular Ca2+ mobilization, alpha 2C
Format: cell-based
Conditions: value in parentheses
Reported Metric: Alpha 2C relative efficacy compared to a standard full agonist

- c1ccc2c(c1)CCC[C@@H]2NC1=NCCC1: (0.8)
- Cc1c(NC2=NCCC2)ccc2[nH]ccc12: (0.9)
- Cc1c(NC2=NCCC2)ccc2[nH]cnc12: (1)

* * *

Molecular target: Alpha 2C (Homo sapiens)
Test: FLIPR assay, intracellular Ca2+ mobilization, alpha 2C
Settings: agonist, read-out: Alpha 2C Potency (EC50)
pEC50: −log10 of the molar value.
Lab note: anything with pEC50 at or over 7 counts as t; the rest go in f.

- Cc1cccc2c1CC[C@@H]2NC1=NCCC1 [Compound 37]: t
- c1ccc2c(c1)CC[C@@H]2NC1=NCCC1 [Compound 33]: f
- c1ccc2c(c1)CCC[C@@H]2NC1=NCCC1 [Compound 34]: f
- c1cc2ccc(NC3=NCCC3)cc2[nH]1 [Compound 21]: f
- Cc1cc(NC2=NCCC2)cc2cc[nH]c12 [Compound 19]: t
- c1nc2c(cc1NC1=NCCC1)CCC2 [Compound 5]: f
- Cc1c(NC2=NCCC2)ccc2cccnc12 [Compound 29]: t
- c1cc(NC2=NCCC2)c2cnccc2c1 [Compound 32]: f
- c1cc(NC2=NCCC2)c2[nH]ccc2c1 [Compound 22]: f
